# response of 2nd mAb values compiled below
biological target: T1, ZIKV-VLP (Native Antigen Inc.) (Zika virus); experiment: BLI binning on ZIKV-VLP; 1st mAb (row): 242-3
T1 construct: also called Zika VLP; ZVLP
Simply state the number, no unit and no words.

Need response of 2nd mAb of anti-ZIKV antibody 306-2 (antibody, V domains shown) VH: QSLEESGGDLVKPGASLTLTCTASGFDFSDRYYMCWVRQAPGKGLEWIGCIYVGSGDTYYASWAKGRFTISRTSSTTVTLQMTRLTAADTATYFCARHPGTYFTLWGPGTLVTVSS VL: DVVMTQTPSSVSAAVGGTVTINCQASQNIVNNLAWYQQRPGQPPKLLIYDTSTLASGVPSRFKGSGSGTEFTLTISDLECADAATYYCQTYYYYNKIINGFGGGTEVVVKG , thanks.
0.019

What does the data say about its response of 2nd mAb? Entry: anti-ZIKV antibody 289-3 (antibody, V domains shown, also called clone 289-3; subclone 289-3) VH: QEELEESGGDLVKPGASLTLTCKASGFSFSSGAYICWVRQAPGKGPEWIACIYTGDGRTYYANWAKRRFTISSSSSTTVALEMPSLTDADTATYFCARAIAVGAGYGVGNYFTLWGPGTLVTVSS VL: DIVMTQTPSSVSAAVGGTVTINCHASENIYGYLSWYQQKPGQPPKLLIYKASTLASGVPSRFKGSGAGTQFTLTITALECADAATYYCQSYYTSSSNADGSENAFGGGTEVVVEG
0.0011

Continuing:
I'd like to know its response of 2nd mAb. The binder in question is anti-ZIKV antibody 270-12 (antibody, V domains shown, also called clone 270-12) VH: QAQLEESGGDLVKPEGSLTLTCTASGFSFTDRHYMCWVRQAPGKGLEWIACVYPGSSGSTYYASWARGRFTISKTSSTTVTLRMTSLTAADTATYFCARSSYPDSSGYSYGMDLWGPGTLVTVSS VL: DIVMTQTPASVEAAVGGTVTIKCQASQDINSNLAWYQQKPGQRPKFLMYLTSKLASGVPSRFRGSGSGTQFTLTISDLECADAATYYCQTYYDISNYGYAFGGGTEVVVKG
-0.0103

Endpoint output: response of 2nd mAb of anti-ZIKV antibody 242-3 (antibody, V domains shown, also called clone 242-3) VH: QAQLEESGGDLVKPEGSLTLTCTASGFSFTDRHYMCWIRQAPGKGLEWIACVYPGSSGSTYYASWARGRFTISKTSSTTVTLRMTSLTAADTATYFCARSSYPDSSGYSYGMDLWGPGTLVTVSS VL: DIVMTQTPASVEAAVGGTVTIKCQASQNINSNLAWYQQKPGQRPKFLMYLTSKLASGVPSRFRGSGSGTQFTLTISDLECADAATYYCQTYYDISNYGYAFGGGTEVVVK . Value?
0.005
